# SYSTEM_UNDER_TEST: GRK1 (Bos taurus, UniProt P28327)
# Construct: Bovine GRK1_1–535, bovine and human GRK2S670A; made in house
# Sequence (P28327 1-535): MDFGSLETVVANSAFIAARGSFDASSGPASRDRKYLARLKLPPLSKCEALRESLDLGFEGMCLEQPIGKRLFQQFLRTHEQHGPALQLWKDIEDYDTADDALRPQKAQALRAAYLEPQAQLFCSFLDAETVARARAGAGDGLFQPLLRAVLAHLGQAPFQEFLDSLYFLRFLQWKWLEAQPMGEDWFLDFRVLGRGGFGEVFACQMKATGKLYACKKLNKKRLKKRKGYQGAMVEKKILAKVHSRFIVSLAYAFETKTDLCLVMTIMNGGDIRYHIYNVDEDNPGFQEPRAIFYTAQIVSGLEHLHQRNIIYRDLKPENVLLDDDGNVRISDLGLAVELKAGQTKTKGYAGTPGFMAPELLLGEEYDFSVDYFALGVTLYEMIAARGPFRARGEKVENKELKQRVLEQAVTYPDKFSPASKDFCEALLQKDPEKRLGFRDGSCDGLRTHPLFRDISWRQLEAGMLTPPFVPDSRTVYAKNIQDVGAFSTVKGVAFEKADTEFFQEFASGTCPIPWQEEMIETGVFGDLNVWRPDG
# PROTOCOL_DETAILS: In vitro phosphorylation assay (tubulin, 5 μM ATP), GRK1
# Format: biochemical, bovine
# TEST_PARAMETERS: read-out: GRK1 log IC50 (converted)
Labelling: IC50 reported below 10 µM becomes met; at or above becomes not met.

CC1=C(C(=O)Nc2ccc3[nH]ncc3c2)C(c2ccc(F)cc2)NC(c2ccc(C(F)(F)F)nc2)=N1 (stereo not shown) [GSK317354A]
not met
COc1cc2c(cc1Nc1nc(Nc3ccsc3C(N)=O)c3cc[nH]c3n1)N(C(=O)CN(C)C)CCC2(C)C [GSK2163632A]
met
CC(C)COC(=O)c1ccc2c(c1)/C(=C/Nc1ccc(S(N)(=O)=O)cc1)C(=O)N2 [GW416981X]
not met
COc1cc2c(cc1Nc1nc(Nc3ccsc3C(N)=O)c3cc[nH]c3n1)N(C(=O)CN(C)C)CCC2 [GSK2110236A]
met
CC1=C(C(=O)Nc2ccc3[nH]ncc3c2)C(c2ccc(Cl)c(Cl)c2)CC(=O)N1 (stereo not shown) [GSK299115A]
not met
CCn1c(-c2nonc2N)nc2c(C#CC(C)(C)O)nc(O[C@@H](CN)c3ccccc3)cc21 [GSK1007102B]
not met
Fc1cccc(COc2ccc(Nc3ncnc4cc(-c5ccc[nH]5)sc34)cc2Cl)c1 [GW693881A]
not met
CN(c1ccc(NC(=O)Nc2ccc(OC(F)(F)F)cc2)cc1)c1ccnc(Nc2cccc(S(N)(=O)=O)c2)n1 [GW806742X]
not met
CC1=C(C(=O)Nc2ccc3[nH]ncc3c2)C(c2ccc(F)cc2)NC(=O)N1 (stereo not shown) [GSK180736A]
not met

----------
Below: a set of entries, each annotated with reported GRK1 Tm.
# SYSTEM_UNDER_TEST: GRK1 (Bos taurus, UniProt P28327)
# Construct: Bovine GRK1_1–535, bovine and human GRK2S670A; made in house
# PROTOCOL_DETAILS: DSF retest (confirmation), GRK1
# Format: binding, bovine
# TEST_PARAMETERS: 0.2 mg mL^–1 kinase
ASSAY_METRIC: GRK1 Tm (°C)

CC1=C(C(=O)Nc2ccc3[nH]ncc3c2)C(c2ccc(F)cc2)NC(=O)N1 (centres unmarked) [GSK180736A]
25.3
COc1cc2c(cc1Nc1nc(Nc3ccsc3C(N)=O)c3cc[nH]c3n1)N(C(=O)CN(C)C)CCC2(C)C [GSK2163632A]
26.3
CNC(=O)c1ncccc1Nc1nc(Nc2cc3c(cc2OC)CCCN3C(=O)CN(C)C)nc2[nH]ccc12 [GSK2220400A]
28.6
CC1=C(C(=O)Nc2ccc3[nH]ncc3c2)C(c2ccc(F)cc2)NC(c2ccc(C(F)(F)F)nc2)=N1 (centres unmarked) [GSK317354A]
23.2
CC1=C(C(=O)Nc2ccc3[nH]ncc3c2)C(c2ccc(Cl)c(Cl)c2)CC(=O)N1 (centres unmarked) [GSK299115A]
23.4
Fc1cccc(COc2ccc(Nc3ncnc4cc(-c5ccc[nH]5)sc34)cc2Cl)c1 [GW693881A]
24.8
CC(C)COC(=O)c1ccc2c(c1)/C(=C/Nc1ccc(S(N)(=O)=O)cc1)C(=O)N2 [GW416981X]
24.8
CCn1c(-c2nonc2N)nc2c(C#CC(C)(C)O)nc(O[C@@H](CN)c3ccccc3)cc21 [GSK1007102B]
26.7
